Reported %Inh is given for each of the following compounds.
Test system: NEK11
conditionSet: concentration: 1 μM, replicates: in singlicate; n = 1;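 also: KINOMEscan kinase panel screen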
Please respond with the number in % and leave the unit unwritten.

Reference set (5 entries):
# compound, unit, numericResult
measured = [
    ("O=C(NCCCN1CCOCC1)c1cccc(Nc2nccc(Nc3ccc(Oc4ccccc4)cc3)n2)c1", "%", 13),
    ("Cc1ccc(C(=O)NCC(N)=O)cc1-n1c(C)cc(OCc2ccc(F)cc2F)c(Br)c1=O", "%", 0),
    ("Cc1cccc(-c2nc(-c3ccc(S(C)(=O)=O)cc3)sc2-c2ccncc2)c1", "%", 0),
    ("O=C1Cc2cc(Nc3nc(NCc4cccc(S(=O)(=O)C(F)(F)F)c4)ncc3C(F)(F)F)ccc2N1", "%", 0),
    ("COc1ccc(S(=O)(=O)NC2CCN(c3cc(C)nc(Nc4cccc(C#N)c4)n3)CC2)cc1.O=C(O)C(F)(F)F", "%", 0),
]

Exercise: Dear colleague, I am looking for the recorded %Inh of the following compound: `CN1c2ccc(CNc3ccc(F)cc3)cc2-c2c(cnn2C)S1(=O)=O`
Solution: 0

Exercise: Fill blank: measured %Inh of the compound `COc1ccc(COc2cc(-n3cnc4ccccc43)sc2C(N)=O)cc1` is ____.
Solution: 0

====

Measured %Inh by item
Test system: MYO3B
conditionSet: concentration: 1 μM, replicates: in singlicate; n = 1
I only need the number, in %, no unit after it.

// below: answered compounds
# compound, unit, %Inh
records = [
    ("[2H]C([2H])(c1cccc(C(F)(F)F)c1C)n1ccn2c(=O)nc(N3CCOCC3)cc12", "%", 0),
    ("O=C(NOCC1CC1)c1ccc(F)c(F)c1Nc1ccc(I)cc1Cl", "%", 0),
    ("NS(=O)(=O)CCc1cccc(Nc2nccc(-c3c(-c4cccc(NC(=O)c5c(F)cccc5F)c4)nn4ccccc34)n2)c1", "%", 4),
    ("Cc1c2ccc(N(C)c3ccnc(Nc4cccc(S(N)(=O)=O)c4)n3)cc2nn1Cc1ccccc1.Cl.Cl", "%", 41),
    ("Cn1ccc2ncnc(Oc3ccc(NC(=O)Nc4ccncc4)c(Cl)c3)c21", "%", 13),
]

Exercise: Any idea what its %Inh is? The compound is `CN(C(=O)c1ccc(-c2cc(-c3c[nH]nc3-c3ccccn3)ccn2)cc1)C1CCOCC1`
Solution: 0

Exercise: Item under review: `CC(C)Oc1ccc2c(-c3ccnc(Nc4ccc(N5CCN(C)CC5)cc4)n3)cnn2n1` . Reported %Inh?
Solution: 0

Exercise: Field request: %Inh | item: Cc1nnc(-c2ccc3ncc(-c4ccc(S(C)=O)cc4)n3c2)o1 (stereo not drawn)
Solution: 0

Exercise: Please report the recorded %Inh for `COCCNC(=O)c1ccc(-c2cc(C(=O)NC3CC3)cc(F)c2C)cc1` .
Solution: 24

Exercise: Entry `O=C(Nc1cccc(-c2nn3ncccc3c2-c2ccnc(Nc3cccc(C(F)(F)F)c3)n2)c1)c1c(F)cccc1F` : reported %Inh = ?
Solution: 4

====

System: IRAK4
conditionSet: concentration: 1 μM, replicates: in singlicate; n = 1
Here, each record is paired with measured %Inh data.
# number only, unit % dropped from output

# substanceSmiles, system, %Inh (%)
measured = [
    ("CC(=O)Nc1ccc(COc2ccc(Nc3ccnc4cc(-c5ccccn5)ccc34)cc2)cc1.Cl", "IRAK4", 0),
]

Exercise: Returns the measured %Inh for the input compound. Input: `O=C(NCCCN1CCOCC1)c1cccc(Nc2nccc(Nc3ccc(Oc4ccccc4)cc3)n2)c1`
Solution: 0

Exercise: Entry `N#Cc1c(N2CCOCC2)sc(-c2ccn[nH]2)c1-c1ccc(Cl)cc1` : reported %Inh = ?
Solution: 1

Exercise: Quick one: %Inh for `CCCCCc1nc2c(N)ncnc2n1CCCCC` ?
Solution: 0

Exercise: Record request: %Inh value, item `COC(=O)Nc1nc2cc(Oc3ccc(NC(=O)Nc4cc(F)ccc4F)cc3)ccc2[nH]1.Cl`
Solution: 6

Exercise: Would you mind telling me what %Inh value was observed for `CCc1ccnc(/C=C/c2n[nH]c3cc(Sc4ccccc4C(=O)NC)ccc23)c1` ?
Solution: 5

Exercise: Could you share which %Inh value was measured for `O=C1Cc2cc(Nc3nc(NCc4cccc(S(=O)(=O)C(F)(F)F)c4)ncc3C(F)(F)F)ccc2N1` ?
Solution: 22

Exercise: Which %Inh is listed for `CC(C)Oc1ccc2c(-c3ccnc(Nc4ccc(N5CCN(C)CC5)cc4)n3)cnn2n1` ?
Solution: 60

Exercise: Reported %Inh for `O=C1NC(=O)C(N2CCc3ccccc32)=C1c1cccc(Cl)c1` : what is it?
Solution: 0

Origin of values: paper PMC5540273
